Test system: 777334-354-R2-J4-PDC tumor spheroids with HUVEC/MSC, viability
method-summary: Anticancer human tumor 777334-354-R2-J4-PDC patient-derived pancreatic adenocarcinoma cell line growth inhibition [GQUAD]
assay-setup: second compound 0.316 µM; first compound 0.0316 µM; hits give low values
viability, T/C less than 80% is 1.0; viability, T/C greater than or equal to 80% is 0.0.

molecule	assigned-category
Nc1ccn(C2OC(CO)C(O)C2(F)F)c(=O)n1 (stereo unspecified) + CN(C)c1ccc(Nc2c3ccc(NC(=O)CCN4CCCC4)cc3nc3cc(NC(=O)CCN4CCCC4)ccc23)cc1	1.0
CC(C)n1c(=O)n(C)c2cnc3cc(F)c(-c4ccc(OCCCN5CCCCC5)nc4)cc3c21 + Cc1cnc(CNC(=O)c2c(=O)c3ccc(N4CCCN(C)CC4)nc3n3c2sc2ccccc23)cn1	1.0
Nc1ccn(C2OC(CO)C(O)C2(F)F)c(=O)n1 (stereo unspecified) + Cc1[nH]c2ccc(F)cc2c1-c1nc2c3cccnc3c3ncccc3c2[nH]1	1.0
O=c1[nH]cc(F)c(=O)[nH]1 + CN(C)c1ccc(Nc2c3ccc(NC(=O)CCN4CCCC4)cc3nc3cc(NC(=O)CCN4CCCC4)ccc23)cc1	0.0
CC1COCCN1c1cc(-c2ccnn2C)c2ccnc(-c3ccn[nH]3)c2n1 (stereo unspecified) + Cc1cnc(CNC(=O)c2c(=O)c3ccc(N4CCCN(C)CC4)nc3n3c2sc2ccccc23)cn1	1.0
CCCS(=O)(=O)Nc1ccc(F)c(C(=O)c2c[nH]c3ncc(-c4ccc(Cl)cc4)cc23)c1F + Cc1cnc(CNC(=O)c2c(=O)c3ccc(N4CCCN(C)CC4)nc3n3c2sc2ccccc23)cn1	0.0

###

Test system: 777334-354-R2-J4-PDC tumor spheroids with HUVEC/MSC, viability
method-summary: Anticancer human tumor 777334-354-R2-J4-PDC cell line growth inhibition [GQUAD];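 also: spheroids exposed to compounds for 7 days before readout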
assay-setup: second compound 1 µM; first compound 0.0316 µM; hits give low values

molecule	viability, T/C
CC1COCCN1c1cc(-c2ccnn2C)c2ccnc(-c3ccn[nH]3)c2n1 (stereo not drawn) + CN(C)c1ccc(Nc2c3ccc(NC(=O)CCN4CCCC4)cc3nc3cc(NC(=O)CCN4CCCC4)ccc23)cc1	90.8%
CC(C)n1c(=O)n(C)c2cnc3cc(F)c(-c4ccc(OCCCN5CCCCC5)nc4)cc3c21 + CN(C)c1ccc(Nc2c3ccc(NC(=O)CCN4CCCC4)cc3nc3cc(NC(=O)CCN4CCCC4)ccc23)cc1	81.7%
O=C(NO)c1cnc(N2CCN(S(=O)(=O)c3ccc4ccccc4c3)CC2)nc1 + Cc1cnc(CNC(=O)c2c(=O)c3ccc(N4CCCN(C)CC4)nc3n3c2sc2ccccc23)cn1	65.6%

###

Test system: 777334-354-R2-J4-PDC tumor spheroids with HUVEC/MSC, viability
method-summary: Anticancer human tumor 777334-354-R2-J4-PDC cell line growth inhibition [GQUAD];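 also: spheroids exposed to compounds for 7 days before readout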
assay-setup: second compound 0.0316 µM; first compound 0.1 µM; hits give low values
Recorded measurements of viability, T/C, one per entry

compound	unit-annotation	viability, T/C
C=CC(=O)N1CCN(c2nc(=O)n(-c3c(C)ccnc3C(C)C)c3nc(-c4c(O)cccc4F)c(F)cc23)C(C)C1 (stereo not given) + Cc1[nH]c2ccc(F)cc2c1-c1nc2c3cccnc3c3ncccc3c2[nH]1	%	86.6
COc1cccc2c1C(=O)c1c(O)c3c(c(O)c1C2=O)CC(O)(C(=O)CO)CC3OC1CC(N)C(O)C(C)O1 (stereo not given) + Cc1[nH]c2ccc(F)cc2c1-c1nc2c3cccnc3c3ncccc3c2[nH]1	%	83.2
Nc1ccn(C2OC(CO)C(O)C2(F)F)c(=O)n1 (stereo not given) + Cc1cnc(CNC(=O)c2c(=O)c3ccc(N4CCCN(C)CC4)nc3n3c2sc2ccccc23)cn1	%	61.2
CCCS(=O)(=O)Nc1ccc(F)c(C(=O)c2c[nH]c3ncc(-c4ccc(Cl)cc4)cc23)c1F + Cc1[nH]c2ccc(F)cc2c1-c1nc2c3cccnc3c3ncccc3c2[nH]1	%	108
O=C(c1cc(Cc2n[nH]c(=O)c3ccccc23)ccc1F)N1CCN(C(=O)C2CC2)CC1 + Cc1cnc(CNC(=O)c2c(=O)c3ccc(N4CCCN(C)CC4)nc3n3c2sc2ccccc23)cn1	%	94.2
